Reference for the values: ChEMBL document CHEMBL1806384

# Target System: Aminopeptidase N (Sus scrofa) (UniProt P15145)
# Sequence (P15145 whole entry): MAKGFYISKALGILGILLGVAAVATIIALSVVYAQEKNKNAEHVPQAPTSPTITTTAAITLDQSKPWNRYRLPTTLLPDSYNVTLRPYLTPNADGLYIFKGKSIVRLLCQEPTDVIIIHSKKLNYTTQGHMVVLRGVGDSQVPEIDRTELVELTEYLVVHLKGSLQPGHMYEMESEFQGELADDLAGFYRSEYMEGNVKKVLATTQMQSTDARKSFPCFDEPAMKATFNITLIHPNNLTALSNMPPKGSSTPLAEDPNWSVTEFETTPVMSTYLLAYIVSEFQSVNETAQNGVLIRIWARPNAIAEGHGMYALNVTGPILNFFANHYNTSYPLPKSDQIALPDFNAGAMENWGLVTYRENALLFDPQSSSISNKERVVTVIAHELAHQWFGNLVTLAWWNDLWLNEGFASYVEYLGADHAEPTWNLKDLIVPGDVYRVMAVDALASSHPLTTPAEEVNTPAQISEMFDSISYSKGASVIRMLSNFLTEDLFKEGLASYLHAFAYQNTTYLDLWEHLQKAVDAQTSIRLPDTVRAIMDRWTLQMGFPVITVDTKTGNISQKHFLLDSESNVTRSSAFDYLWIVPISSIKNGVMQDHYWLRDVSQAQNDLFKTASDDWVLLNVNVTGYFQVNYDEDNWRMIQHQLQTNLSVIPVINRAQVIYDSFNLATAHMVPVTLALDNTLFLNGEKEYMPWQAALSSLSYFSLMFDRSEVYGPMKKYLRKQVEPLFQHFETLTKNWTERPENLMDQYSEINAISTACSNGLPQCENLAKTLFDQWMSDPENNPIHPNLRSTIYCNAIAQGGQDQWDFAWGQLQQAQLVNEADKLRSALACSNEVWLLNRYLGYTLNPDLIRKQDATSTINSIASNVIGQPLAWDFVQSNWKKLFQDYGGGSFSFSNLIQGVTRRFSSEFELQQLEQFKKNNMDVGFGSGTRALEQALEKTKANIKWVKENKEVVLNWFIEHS
# Assay Name: Inhibition of porcine kidney microsomal aminopeptidase N at 100 uM after 1 hr by fluorescence polarization based competition assay
Experimental Endpoint: inhibition (%)
Give your result in % as a bare value.

Structure String: COc1ccc(C(=O)c2coc3c2C(=O)C(=O)C=C3Br)cc1
Unit String: %
inhibition: 64

Structure String: O=C(c1ccccc1)c1coc2c(Cl)c(Cl)c(O)cc12
Unit String: %
inhibition: 6

Structure String: COc1ccc(C(=O)c2coc3c(Br)c(Br)c(O)cc23)cc1
Unit String: %
inhibition: 0

Structure String: COc1ccc(C(=O)c2coc3c2C(=O)C(=O)C(Br)=C3Br)cc1
Unit String: %
inhibition: 41

Structure String: COc1cc(C(=O)c2coc3c2C(=O)C(=O)c2ccccc2-3)cc(OC)c1OC
Unit String: %
inhibition: 10

Challenge: Let me know recorded inhibition for COc1ccc(C(=O)c2coc3c(Br)c(Br)c(O)cc23)cc1OC , thanks.
Response given: 0

Challenge: Let me know recorded inhibition for O=C(c1ccccc1)c1coc2ccc(O)cc12 , thanks.
Response given: 10

Challenge: Let me know recorded inhibition for COc1ccc(C(=O)c2coc3c2C(=O)C(=O)C(Cl)=C3Cl)cc1OC , thanks.
Response given: 99

Challenge: Let me know recorded inhibition for COc1ccc(C(=O)c2coc3c(Cl)cc(O)c(Cl)c23)cc1 , thanks.
Response given: 0

Challenge: Let me know recorded inhibition for COc1ccc(C(=O)c2coc3c2C(=O)C(=O)c2ccccc2-3)cc1OC , thanks.
Response given: 0
